Biological target: human FXa (Homo sapiens)
Construct: purchased Sigma-Aldrich
Sequence (P00742 235-488 limits assumed): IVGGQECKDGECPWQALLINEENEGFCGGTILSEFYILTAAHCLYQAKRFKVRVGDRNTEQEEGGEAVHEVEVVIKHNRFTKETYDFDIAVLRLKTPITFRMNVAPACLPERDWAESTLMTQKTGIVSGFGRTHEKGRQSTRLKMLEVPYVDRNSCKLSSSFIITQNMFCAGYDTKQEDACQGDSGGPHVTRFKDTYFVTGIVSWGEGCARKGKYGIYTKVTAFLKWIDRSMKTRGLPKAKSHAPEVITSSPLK
Sequence (P00742 41-179 limits assumed): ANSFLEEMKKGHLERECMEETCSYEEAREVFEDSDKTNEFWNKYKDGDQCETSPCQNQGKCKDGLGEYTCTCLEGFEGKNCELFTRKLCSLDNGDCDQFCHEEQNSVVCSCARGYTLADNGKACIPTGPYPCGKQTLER
Assay: FXa activity and kinetic/inhibitor assay
Type: biochemical
Conditions: FXa; read-out: Kiv (inhibition constant using Vmax)
# reported Ki; entries follow

# compound, output unit, Ki
data = [
    ("COc1ccc(C(=O)O)cc1O [IVA, isovanillic acid]", "µM", 75),
    ("O=C(O)c1ccc(O)cc1 [4-HA, 4-hydroxybenzoic acid]", "µM", 109),
    ("O=C(O)c1ccc(O)c(O)c1 [PA, protocatechuic acid]", "µM", 23),
]

The reported numbers originate from paper PMC9181887.
